Quick reference for Disulfide inhibition of TR/Trx (IC50 TR/Trx) among some compounds
subject_of_test: TR/Trx (Homo sapiens)
method_summary: Thioredoxin dependent reduction of insulin by human thioredoxin reductase and NADPH (IC50 TR/Trx, 96 well)
Type: biochemical
protocol_conditions: Table 4
Excerpt: When referring to the particular system being analyzed IC50 is typically followed by an abbreviation referring to that system (i.e., IC50 TR/Trx for the above described thioredoxin redox system which is comprised of thioredoxin reductase and thioredoxin). A second plate was used for the assessment of biological activity or as a biological screen. Aliquots of disulfides dissolved in DMSO, were be transferred into 96 well plates. […]
Unit µg/mL implied. Number only.

Worked examples, 5 compounds total:
CCCSSc1nccn1C [Compound B-2]	75
CCC(C)SSCc1cccc(OC)c1 (stereo not drawn) [Compound F-20]	61
CCCCSSc1ncccc1C(=O)O [Compound C-23]	65
CC(C)SSc1nnc(S)s1 [Compound E-4]	35
CC(C)CSSC(C)c1ccccc1 (stereo not drawn) [Compound G-22]	201

Here's the next entry for you.
Recall and state the measured Disulfide inhibition of TR/Trx (IC50 TR/Trx) for CCCCSSc1nnc(C)s1 [Compound C-3] .
9

---

Tested on: EMT6 mouse mammary tumor cells
method_summary: Cytotoxicity against EMT6 cells in culture (MTT)
protocol_conditions: read-out: Disulfide Cytotoxicity (IC50), Table 5, 48 h exposure
test_readout: pIC50
In textbook form, pIC50 equals minus log to base ten of the concentration in mol/L.

Worked examples, 6 compounds total:
CCC(C)SSCc1ccccc1 (stereo not drawn)	3.97
ClCCCSSc1nc2ccccc2[nH]1	4.09
COc1cccc(CSSCCCCl)c1	4.04
O=[N+]([O-])c1ccc2[nH]c(SSCCCCl)nc2c1	4.23
CC(C)SSc1ncc[nH]1	4.62
CC(O)C(C)SSc1nc2ccccc2o1 (stereo not drawn)	4.54

Here's the next entry for you.
Recall and state the measured pIC50 for `CCSSc1nccn1C` .
4.82

---

subject_of_test: TR/Trx (Homo sapiens, UniProt Q16881)
method_summary: Thioredoxin dependent reduction of insulin by human thioredoxin reductase and NADPH (IC50 TR/Trx, 96 well)
Type: biochemical
protocol_conditions: Table 4
test_readout: Disulfide inhibition of TR/Trx (IC50 TR/Trx) (µg/mL)
Unit µg/mL implied. Number only.

Worked examples, 3 molecules total:
CC(SSc1nnc(S)s1)c1ccccc1 (stereo not shown)	42
CCCCSSCc1ccc(OC)cc1	179
CCCSSc1nnc(S)s1	35

Recall and state the measured Disulfide inhibition of TR/Trx (IC50 TR/Trx) for `Cc1ccc2[nH]c(SSCC(C)C)nc2c1` .
11

---

System: EMT6 mouse mammary tumor cells
method_summary: Cytotoxicity against EMT6 cells in culture (MTT)
protocol_conditions: read-out: Disulfide Cytotoxicity (IC50), Table 5, 48 h exposure
Quick reference for IC50 among some compounds

Worked examples, 4 compounds total:
CC(C)SSc1nc2ccccc2o1	> 180 µM
CC(C)SSC(C)c1ccccc1 (centres unmarked)	> 180 µM
CCC(C)SSc1ccccc1 (centres unmarked)	> 180 µM
CC1CCC(C(C)(C)SSCCC(=O)O)C(=O)C1 (centres unmarked)	≥ 180 µM

Here's the next entry for you.
Recall and state the measured IC50 for `Cc1ccc2[nH]c(SSC(C)C)nc2c1` .
> 180 µM

---

subject_of_test: TR/Trx (Homo sapiens, UniProt Q16881)
Sequence (Q16881 1-499 isoform Q16881-5): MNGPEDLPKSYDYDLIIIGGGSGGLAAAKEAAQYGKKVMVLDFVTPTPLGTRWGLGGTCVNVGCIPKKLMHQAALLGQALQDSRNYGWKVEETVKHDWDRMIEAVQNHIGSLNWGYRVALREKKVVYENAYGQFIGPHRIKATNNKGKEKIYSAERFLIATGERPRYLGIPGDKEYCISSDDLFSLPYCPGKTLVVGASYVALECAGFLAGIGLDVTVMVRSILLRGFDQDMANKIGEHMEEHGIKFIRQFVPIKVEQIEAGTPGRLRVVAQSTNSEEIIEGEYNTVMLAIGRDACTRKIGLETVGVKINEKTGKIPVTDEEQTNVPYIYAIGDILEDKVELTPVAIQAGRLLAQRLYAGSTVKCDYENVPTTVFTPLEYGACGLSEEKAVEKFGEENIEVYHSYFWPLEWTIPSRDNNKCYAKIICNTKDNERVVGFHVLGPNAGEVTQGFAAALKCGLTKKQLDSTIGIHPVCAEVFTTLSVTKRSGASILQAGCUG
method_summary: Thioredoxin dependent reduction of insulin by human thioredoxin reductase and NADPH (IC50 TR/Trx, 96 well)
Assay type: biochemical
protocol_conditions: Table 4
Consider the reported Disulfide inhibition of TR/Trx (IC50 TR/Trx) of an entry and match it to a band in L: < 40 µg/mL; M: ≥ 40 µg/mL and < 60 µg/mL; H: ≥ 60 µg/mL

CCCCSSCc1ccccc1 [Compound C-19]	H
CC(SSCc1ccccc1)c1ccccc1 (stereo not drawn) [Compound J-19]	H
CCC(C)SSCc1ccccc1 (stereo not drawn) [Compound F-19]	H
CC(C)CSSCc1ccccc1 [Compound G-19]	H

Sort CCCCSSc1nc2cc([N+](=O)[O-])ccc2[nH]1 [Compound C-10] into one of the categories.
H

Sort Cc1nnc(SSC(C)c2ccccc2)s1 (stereo not drawn) [Compound J-3] into one of the categories.
L

Sort Cc1nnc(SSC(C)C)s1 [Compound E-3] into one of the categories.
H

Sort CCC(C)SSc1nccn1C (stereo not drawn) [Compound F-2] into one of the categories.
M

These entries and their values trace back to patent US6552060B1.
